experimental_protocol: Pharmacokinetic study in humans, sodium salt in enteric capsules, single and multiple dose (Example 2)
Format: in vivo, human
run_parameters: human, plasma, oral, 400 mg, 400 mg Dose Group, capsules once daily, Day 18, Median

smiles_str	result_units	AUC(0-t)
O=C(Nc1nc(=O)n(Cc2ccc(Cl)cc2)s1)c1ccc(Cl)cc1	µg·h/mL	1480

---

experimental_protocol: Pharmacokinetic study in humans, sodium salt tablets, multiple dose (Example 3)
Format: in vivo, human
run_parameters: human, plasma, oral, 200 mg, 200 mg Dose Group, tablet once daily, Day 21, Mean

smiles_str	AUC(0-t)
O=C(Nc1nc(=O)n(Cc2ccc(Cl)cc2)s1)c1ccc(Cl)cc1	1940 µg·h/mL
